experiment: in vitro; settings: PAMPA, pH 7.4, Pe Average

compound	u	Papp at 4 h
CC(=O)[C@H]1CC[C@H]2[C@@H]3CCC4=CC(=O)CC[C@]4(C)[C@H]3CC[C@]12C [Progesterone, reference compound]	×10⁻⁶ cm/s	28.8

* * *

test system: B16F10 cells; assay: MTT assay, cytotoxicity in cancer cells; type: cell-based; settings: cancer cells (B16F10), result in words

compound	cytotoxicity
Cc1cc2c(c(C)c1CCO)C(=O)[C@H](C)C2 [Compound 2, (2R)-pterosin B]	little cytotoxicity
Cc1c(CCO)c(CO)cc2c1C(=O)[C@@H](C)C2 [Compound 4, (2S)-pterosin P]	little cytotoxicity
Cc1cc2c(c(C)c1CCO)C(=O)C(C)(C)[C@@H]2O [Compound 5, (3R)-pterosin D]	little cytotoxicity
